Entries and their Tmax values follow.
- EXPERIMENT_SUMMARY: in vivo
- RECORDED_CONDITIONS: male, Wistar, rat, po, 10 mg/kg

Below, 3 compounds whose answers are already recorded.
CCSCC(=O)[C@H]1CC[C@@]2(O)C3=CC(=O)[C@@H]4C[C@@H](O)[C@@H](O)C[C@]4(C)C3CC[C@]12C (stereo partly shown) [Compound 93]    30 min
CCC(CC)C(=O)N(CCOC)C(C)[C@H]1CC[C@@]2(O)C3=CC(=O)[C@@H]4C[C@@H](O)[C@@H](O)C[C@]4(C)C3CC[C@]12C (stereo partly shown) [Compound 51]    15 min
CC(NCC1CCCO1)[C@H]1CC[C@@]2(O)C3=CC(=O)[C@@H]4C[C@@H](O)[C@@H](O)C[C@]4(C)C3CC[C@]12C (stereo partly shown) [Compound 46]    15 min

Query: Complete the entry with Tmax for C/C(=N/OCCN1CCOCC1)[C@H]1CC[C@@]2(O)C3=CC(=O)[C@@H]4C[C@@H](O)[C@@H](O)C[C@]4(C)C3CC[C@]12C (stereo partly shown) [Compound 31]
Reply: 15 min

----------
- EXPERIMENT_SUMMARY: in vivo
- RECORDED_CONDITIONS: male, Wistar, rat, po, 10 mg/kg
PARAMETER: Cmax (ng/mL)
Number in ng/mL, nothing else.

CCC(CC)C(=O)N(CCOC)C(C)[C@H]1CC[C@@]2(O)C3=CC(=O)[C@@H]4C[C@@H](O)[C@@H](O)C[C@]4(C)C3CC[C@]12C (stereo partly shown)    174
CC(NCC1CCCO1)[C@H]1CC[C@@]2(O)C3=CC(=O)[C@@H]4C[C@@H](O)[C@@H](O)C[C@]4(C)C3CC[C@]12C (stereo partly shown)    40
CCSCC(=O)[C@H]1CC[C@@]2(O)C3=CC(=O)[C@@H]4C[C@@H](O)[C@@H](O)C[C@]4(C)C3CC[C@]12C (stereo partly shown)    230

Could you now look at the following molecule, please?
Query: Give the reported value of Cmax for this record: C/C(=N/OCCN1CCOCC1)[C@H]1CC[C@@]2(O)C3=CC(=O)[C@@H]4C[C@@H](O)[C@@H](O)C[C@]4(C)C3CC[C@]12C (stereo partly shown)
Reply: 105

----------
- RECORDED_CONDITIONS: male, Wistar, rat, in vivo, po
PARAMETER: Cexp (coefficient of exposure)

Query: Give Cexp (coefficient of exposure) for the following compound: C/C(=N/OCCN1CCOCC1)[C@H]1CC[C@@]2(O)C3=CC(=O)[C@@H]4C[C@@H](O)[C@@H](O)C[C@]4(C)C3CC[C@]12C (stereo partly shown) [Compound 31]
Reply: 3.7

Query: Consider the compound CCSCC(=O)[C@H]1CC[C@@]2(O)C3=CC(=O)[C@@H]4C[C@@H](O)[C@@H](O)C[C@]4(C)C3CC[C@]12C (stereo partly shown) [Compound 93] and give its recorded Cexp (coefficient of exposure).
Reply: 10.3

Query: Fill in reported Cexp (coefficient of exposure) for this entry: CC(NCC1CCCO1)[C@H]1CC[C@@]2(O)C3=CC(=O)[C@@H]4C[C@@H](O)[C@@H](O)C[C@]4(C)C3CC[C@]12C (stereo partly shown) [Compound 46]
Reply: 2.6

Query: Please report Cexp (coefficient of exposure) for the following compound: CCC(CC)C(=O)N(CCOC)C(C)[C@H]1CC[C@@]2(O)C3=CC(=O)[C@@H]4C[C@@H](O)[C@@H](O)C[C@]4(C)C3CC[C@]12C (stereo partly shown) [Compound 51]
Reply: 3.6

----------
Listing of recorded AUC by entry.
- EXPERIMENT_SUMMARY: in vivo
- RECORDED_CONDITIONS: male, Wistar, rat, po, 10 mg/kg
Report the figure in ng·h/mL without appending any unit label.

These recorded examples may help you get a feel for the data.
C/C(=N/OCCN1CCOCC1)[C@H]1CC[C@@]2(O)C3=CC(=O)[C@@H]4C[C@@H](O)[C@@H](O)C[C@]4(C)C3CC[C@]12C (stereo partly shown)    281
CCC(CC)C(=O)N(CCOC)C(C)[C@H]1CC[C@@]2(O)C3=CC(=O)[C@@H]4C[C@@H](O)[C@@H](O)C[C@]4(C)C3CC[C@]12C (stereo partly shown)    273
CCSCC(=O)[C@H]1CC[C@@]2(O)C3=CC(=O)[C@@H]4C[C@@H](O)[C@@H](O)C[C@]4(C)C3CC[C@]12C (stereo partly shown)    785

Then there is this compound:
Query: Given the compound CC(NCC1CCCO1)[C@H]1CC[C@@]2(O)C3=CC(=O)[C@@H]4C[C@@H](O)[C@@H](O)C[C@]4(C)C3CC[C@]12C (stereo partly shown) , write its reported AUC.
Reply: 202
